- measured.target: Histone-lysine N-methyltransferase NSD2 (Homo sapiens, UniProt O96028)
- Sequence (O96028 whole entry): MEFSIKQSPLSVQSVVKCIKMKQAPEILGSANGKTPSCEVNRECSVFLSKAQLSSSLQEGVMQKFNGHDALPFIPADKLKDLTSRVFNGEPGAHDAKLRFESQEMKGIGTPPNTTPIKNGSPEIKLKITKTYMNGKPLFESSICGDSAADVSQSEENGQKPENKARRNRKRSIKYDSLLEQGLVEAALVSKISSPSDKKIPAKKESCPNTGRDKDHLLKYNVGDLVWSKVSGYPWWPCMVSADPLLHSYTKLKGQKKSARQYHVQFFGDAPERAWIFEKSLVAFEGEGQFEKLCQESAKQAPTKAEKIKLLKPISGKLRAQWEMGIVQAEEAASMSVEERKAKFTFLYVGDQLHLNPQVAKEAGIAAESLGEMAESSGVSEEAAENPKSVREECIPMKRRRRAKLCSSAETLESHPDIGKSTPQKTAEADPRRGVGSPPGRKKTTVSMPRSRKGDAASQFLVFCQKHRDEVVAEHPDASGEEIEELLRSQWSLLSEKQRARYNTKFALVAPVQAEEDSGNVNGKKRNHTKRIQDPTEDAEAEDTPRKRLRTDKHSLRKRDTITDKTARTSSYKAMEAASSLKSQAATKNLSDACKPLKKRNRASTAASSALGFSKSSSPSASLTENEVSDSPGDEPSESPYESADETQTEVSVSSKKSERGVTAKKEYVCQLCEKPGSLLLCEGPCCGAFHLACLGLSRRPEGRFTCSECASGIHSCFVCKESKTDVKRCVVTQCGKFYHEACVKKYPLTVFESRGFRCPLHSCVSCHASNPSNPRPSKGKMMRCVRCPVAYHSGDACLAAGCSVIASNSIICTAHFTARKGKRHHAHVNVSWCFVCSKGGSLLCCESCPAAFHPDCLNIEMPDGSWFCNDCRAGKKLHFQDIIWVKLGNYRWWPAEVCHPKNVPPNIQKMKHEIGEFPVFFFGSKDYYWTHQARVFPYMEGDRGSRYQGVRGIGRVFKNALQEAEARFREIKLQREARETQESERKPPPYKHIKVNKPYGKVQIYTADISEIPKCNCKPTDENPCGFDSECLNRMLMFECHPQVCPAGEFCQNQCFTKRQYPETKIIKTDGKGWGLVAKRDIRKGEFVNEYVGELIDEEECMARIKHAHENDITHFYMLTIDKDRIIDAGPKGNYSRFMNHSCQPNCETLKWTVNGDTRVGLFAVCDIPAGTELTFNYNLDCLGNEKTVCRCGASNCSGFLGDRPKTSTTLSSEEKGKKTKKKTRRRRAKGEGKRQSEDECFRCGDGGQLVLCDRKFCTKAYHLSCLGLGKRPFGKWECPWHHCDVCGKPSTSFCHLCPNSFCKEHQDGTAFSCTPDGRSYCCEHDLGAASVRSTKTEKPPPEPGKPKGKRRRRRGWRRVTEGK
- Format: biochemical
Active and inactive are the calls of the source.
Parameter call: string, one of Yes = active, No = inactive

Query string: Give the logged outcome of this assay for the following compound: `CC(C)=CCC1=C(OCC(=O)O)C(=O)c2ccccc2C1=O`
Result string: Yes

Query string: Give the logged outcome of this assay for the following compound: Nc1c(C(=O)OCC2CCCO2)c2nc3ccccc3nc2n1C1CCCCC1 (stereo not given)
Result string: Yes

Query string: Give the logged outcome of this assay for the following compound: `Cc1ccc(NC(=O)CN2C(=O)N/C(=C/c3cc(C)n(-c4cccc(C(=O)O)c4)c3C)C2=O)cc1`
Result string: No

Query string: Give the logged outcome of this assay for the following compound: `Cc1[nH][nH]c(=O)c1C(c1c(C)[nH][nH]c1=O)c1cn(Cc2ccccc2Cl)c2ccccc12`
Result string: Yes

Query string: Give the logged outcome of this assay for the following compound: `CC1(C)CN(c2cccc(C#N)c2)C1=O`
Result string: Yes

Hello, the source for this data is ChEMBL document CHEMBL1201862, in case you need it.
